- System Tested: Glc(b1-4)Glc
- Test Description: glycan array binding signal (z-score within array); higher = stronger binding
- Measurement Conditions: glycan notation: IUPAC condensed, linker removed
Only a selection was taken, and the strongest signals are over-represented in it overall.
Would you kindly list glycan array binding signal (z-score) for each of these binders?
Answers are plain numbers.

[[record]]
binder = "CBM40 CPF071 (Clostridium perfringens) (protein) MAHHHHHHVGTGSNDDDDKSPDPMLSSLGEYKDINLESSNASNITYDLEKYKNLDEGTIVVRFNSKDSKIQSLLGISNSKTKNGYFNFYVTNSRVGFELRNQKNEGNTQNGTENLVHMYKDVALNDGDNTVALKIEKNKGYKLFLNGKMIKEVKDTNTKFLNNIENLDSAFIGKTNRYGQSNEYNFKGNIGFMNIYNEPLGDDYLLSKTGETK"
observed_value = 2.37

[[record]]
binder = "MIC1 (Toxoplasma gondii), O00834 (protein) VGPEAYGEASHSHSPASGRYIQQMLDQRCQEIAAELCQSGLRKMCVPSSRIVARNAVGITHQNTLQWRCFDTASLLESNQENNGVNCVDDCGHTIPCPGGVHRQNSNHATRHEILSKLVEEGVQRFCSPYQASANKYCNDKFPGTIARRSKGFGNNVEVAWRCYEKASLLYSVYAECASNCGTTWYCPGGRRGTSTELDKRHYTEEEGIRQAIGSVDSPCSEVEVCLPKDENPPLCLDESGQISRT"
observed_value = -0.287

[[record]]
binder = "Apa (Mycobacterium tuberculosis), Rv1860 (protein) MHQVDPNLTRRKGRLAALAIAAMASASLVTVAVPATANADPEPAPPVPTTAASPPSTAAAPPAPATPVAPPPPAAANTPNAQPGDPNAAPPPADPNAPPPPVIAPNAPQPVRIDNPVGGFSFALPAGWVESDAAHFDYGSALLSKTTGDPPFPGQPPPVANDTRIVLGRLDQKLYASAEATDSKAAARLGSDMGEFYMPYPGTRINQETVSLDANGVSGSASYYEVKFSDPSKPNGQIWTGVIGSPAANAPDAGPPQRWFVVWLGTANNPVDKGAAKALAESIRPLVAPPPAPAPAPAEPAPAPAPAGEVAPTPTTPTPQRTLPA"
observed_value = 2.25

[[record]]
binder = "SBD (Rhizopus oryzae), P07683 (protein) ASIPSSASVQLDSYNYDGSTFSGKIYVKNIAYSKKVTVVYADGSDNWNNNGNIIAASFSGPISGSNYEYWTFSASVKGIKEFYIKYEVSGKTYYDNNNSANYQVS"
observed_value = -0.436


Next item in the queue.
Return reported glycan array binding signal (z-score); argument: FaeGad (Escherichia coli) (protein) WMTGDFNGSVDIGGSITADDYRQKWEWEVGTGLNGFGSVLNDLTNGGTKLTITVTGNKPILLGRTKEAFATPVTSGVDGIPHIAFTDYEGASVELRNPDGETEKGLTYFVLPMKNAEGTKVGSVKVNASYAGALGRGGVTSADGELMSLFAEGSHAIFYGGLPTNVKNSELKGGSAAAARTELFGSLSKNDILGQIQRVNANITSLVNVPGSFNENMAYTDGSVVSVAYALGIANGQTIEATFNQAVTTSTQWSAPLNVAITYY
3.57
